Cited source: patent US20260242478A1

Tgt: T1, PSMA Fab (SEQ ID NOs: 19, 20)
T1 construct: also called 006 PSMA Fab; anti-PSMA Fab
Assay: competition ELISA, peptide titrated against 0.3 nM PSMA Fab on captured biotinylated PSMA
Where no end group is shown, it is not given here.
binders and their reported IC50
Test Readout: IC50 (µM)

1. IAVLCQPNWMCAGF (cysteine pairing not given here; also: biotinylated (site not given here), PSMA peptide mask (P2)) [Peptide-180]: 4.54
2. LMKWCTPRWMCAAE (cysteine pairing not given here; also: biotinylated (site not given here), PSMA peptide mask (P2)) [Peptide-179]: 4.44
3. IECAYMTDQRFWCW (cysteine pairing not given here; also: biotinylated (site not given here), PSMA peptide mask (P2)) [Peptide-188]: 7.22
4. PELRCVPFWMCSFN (cysteine pairing not given here; also: biotinylated (site not given here), PSMA peptide mask (P2)) [Peptide-181]: 11.2
5. YECHQGLFHRWCVN (cysteine pairing not given here; also: biotinylated (site not given here), PSMA peptide mask (P2)) [Peptide-185]: 23
